Assay notes: Intrinsic clearance in mouse liver microsomes assessed per mg protein at 1 uM measured in presence of NADPH
Format: ADME, Microsome
Assay context: read-out: CLH
The entries below come with measured microsomal CLint at 1 µM values attached.
The answer consists of two parts: a number and, after it, its unit.

Smiles record: O=C1C=C(n2cc(CCCCl)nn2)C(=O)c2c(O)cccc21
microsomal CLint at 1 µM: 3.1 µL/min/mg

// query Recorded microsomal CLint at 1 µM of `CCCCc1cn(C2=CC(=O)c3cccc(O)c3C2=O)nn1` , please.
// result 40.6 µL/min/mg

###

Assay notes: Intrinsic clearance in human liver microsomes assessed per mg protein at 1 uM measured in presence of NADPH
Assay type: ADME, Microsome
Assay context: read-out: CLH
The entries below come with measured microsomal CLint at 1 µM values attached.
Only the number, expressed in µL/min/mg, is required.

Smiles record: O=C1C=C(n2cc(CCCCl)nn2)C(=O)c2c(O)cccc21
Output unit: µL/min/mg
microsomal CLint at 1 µM: 1.2

// query Recorded microsomal CLint at 1 µM of `CCCCc1cn(C2=CC(=O)c3cccc(O)c3C2=O)nn1` , please.
// result 46.1

###

Target desc: P2X purinoceptor 7 (Mus musculus)
Assay notes: Antagonist activity at P2X7R in Swiss Webster mouse peritoneal macrophages assessed as inhibition of ATP-induced propidium iodide uptake preincubated for 10 mins followed by ATP induction for 25 mins and subsequent propidium iodide addition for last 5 mins by fluorescence microscopic analysis
The source made the active and inactive calls. The rule behind the calls is not given here.
Allowed answers: active, inactive

Record excerpt, results attached:
Molecule: CCCc1cn(C2=CC(=O)c3cccc(O)c3C2=O)nn1
Classification: inactive
--
Molecule: O=C1C=C(n2cc(CCCCl)nn2)C(=O)c2c(O)cccc21
Classification: active
--
Molecule: CC(C)CC(C)(O)c1cn(C2=CC(=O)c3cccc(O)c3C2=O)nn1 (stereo not drawn)
Classification: inactive
--
Molecule: O=C1C=C(n2cc(-c3ccccc3)nn2)C(=O)c2c(O)cccc21
Classification: inactive
--
Molecule: CCCCc1cn(C2=CC(=O)c3cccc(O)c3C2=O)nn1
Classification: active
--
Molecule: CCC(C)(O)c1cn(C2=CC(=O)c3cccc(O)c3C2=O)nn1 (stereo not drawn)
Classification: inactive
--
Molecule: COc1ccc(CC(=O)NC(N/C(=N/C#N)Nc2cccc3ncccc23)C(C)(C)C)cc1OC (stereo not drawn)
Classification: active

Now look at this entry.
// query Fill in: this test's call for CCOc1ccc(Nc2ccc(/C(=C3C=C/C(=[N+](/CC)Cc4cccc(S(=O)(=O)[O-])c4)C=C/3C)c3ccc(N(CC)Cc4cccc(S(=O)(=O)[O-])c4)cc3C)cc2)cc1.[Na+] [BRILLIANT BLUE G] is ___
// result active

###

Assay notes: Octanol-PBS distribution co-efficient, log D of the compound at 25 mM at pH 7.4 after 2 hrs by shake flask method
Assay type: physicochemical
The entries below come with measured logD at 2 h, 25000 µM values attached.
Output spec: single numeric token, no unit.

Smiles record: CCCCc1cn(C2=CC(=O)c3cccc(O)c3C2=O)nn1
logD at 2 h, 25000 µM: -1.24

// query Recorded logD at 2 h, 25000 µM of `O=C1C=C(n2cc(CCCCl)nn2)C(=O)c2c(O)cccc21` , please.
// result -0.42
